# Anti-CD28 Fab signal in the presence of CD28 annotations
EXPERIMENTAL TARGET: T1, Anti-CD28 Fab (SEQ ID NOs: 696, 697)
T1 construct: In the phage ELISA the Fab was biotinylated and captured on neutravidin coated plates
T1 sequence (VH, as listed by the source, chain 1 of 2): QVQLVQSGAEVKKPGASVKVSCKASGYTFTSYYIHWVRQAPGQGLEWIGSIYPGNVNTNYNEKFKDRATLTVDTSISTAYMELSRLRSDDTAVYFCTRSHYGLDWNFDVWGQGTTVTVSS
T1 sequence (VL, as listed by the source, chain 2 of 2): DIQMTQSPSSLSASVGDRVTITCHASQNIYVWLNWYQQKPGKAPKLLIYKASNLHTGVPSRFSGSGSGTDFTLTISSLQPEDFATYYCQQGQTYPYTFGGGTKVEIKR
PROTOCOL DESCRIPTION: phage binding ELISA on captured anti-CD28 Fab; competitor: CD28 antigen
Where no end group is shown, it is not given here.
REPORTED METRIC: Anti-CD28 Fab signal in the presence of CD28

| BINDER | NUMBER |
| --- | --- |
| YCDGHLSEYMEKCL (cysteine pairing not given here; also: displayed on phage by fusion to pIII, pIII and linker sequence not given here) [Phage-576] | 0.08 |
| YCEGHLPMYMEKCL (cysteine pairing not given here; also: displayed on phage by fusion to pIII, pIII and linker sequence not given here) [Phage-575] | 0.1 |
| YCDGHSTEYLWKCL (cysteine pairing not given here; also: displayed on phage by fusion to pIII, pIII and linker sequence not given here) [Phage-570] | 0.06 |
| YCEGHSPEYMEKCL (cysteine pairing not given here; also: displayed on phage by fusion to pIII, pIII and linker sequence not given here) [Phage-578] | 0.07 |
